TEST_METHOD_NOTES: qHTS assay to identify small molecule agonists of the farnesoid-X-receptor (FXR) signaling pathway - cell viability counter screen (AID 743218); note: nearly all actives have a fitted effect of over 45% in size
CONDITIONS_USED: FXR-bla HEK293T viability, CellTiter-Glo luminescence, 16 h; series mostly up to 62.6 µM
Results filed as inconclusive are left out. The source made the active and inactive calls. Calls come from the whole dose curve; as a rule, active = well fitted cell-killing curve with a large enough effect in the repeat runs; inconclusive = weak or mixed curves, or effect the other way; inactive = no such curve, though single readings can be large or run the other way.
Returns: one label drawn from active, inactive

Would you please look over these solved cases?
CC[C@]1(O)C[C@@H]2CN(CCc3c([nH]c4ccccc34)[C@@](C(=O)OC)(c3cc4c(cc3OC)N(C)[C@H]3[C@@](O)(C(=O)OC)[C@H](OC(C)=O)[C@]5(CC)C=CCN6CC[C@]43[C@@H]65)C2)C1; inactive
O=C1OC2(c3ccc(O)cc3Oc3cc(O)ccc32)c2ccccc21; inactive

Qu. I would be grateful if you could indicate the recorded call for CCCC(=O)c1ccccc1 .
Ans. inactive

Qu. I would be grateful if you could indicate the recorded call for Cc1occc(=O)c1OC(=O)C(C)C .
Ans. inactive

Qu. I would be grateful if you could indicate the recorded call for CC1=CC(=O)c2ccccc2C1=O .
Ans. active

Qu. I would be grateful if you could indicate the recorded call for CCCOC(=O)c1cc(O)c(O)c(O)c1 .
Ans. inactive
